Molecular target: Leucine aminopeptidase (Plasmodium falciparum (isolate 3D7))
Assay: P. falciparum M17LAP inhibitors, primary screen, biochemical, fluorogenic H-Leu-NHMec substrate, 1536-well (AID 1619);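 note: plate controls were full reaction with DMSO carrier for no effect and no enzyme background for full effect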
Details: recombinant M17LAP, H-Leu-NHMec fluorogenic kinetic assay; at 30 µM; stronger effect = higher value
Hit rate of the full screen: of about 220,000 compounds, about 830 (0.38%) were called active. These entries were drawn from the full list. Entries with a potency or affinity are not part of this list.

Compound | inhibition, %
CCc1ccccc1NC(=O)CSc1ccsc1[N+](=O)[O-] | 6.13
O=C(COC(=O)c1ccc[nH]c1=O)NCC1CCCO1 (configuration not stated) | -1.42
Cc1ccc(OCC(=O)Nc2cccc(O)c2)cc1C | 17.6
O=C(CSc1ncnc2nc[nH]c12)Nc1ccccc1C(F)(F)F | 12
Nn1cnc2sc3c(c2c1=O)CCC3 | 0.94
Cc1c(C(=O)N2CCN(Cc3ccc4c(c3)OCO4)CC2)cccc1[N+](=O)[O-] | 11.8
CC(OC(=O)c1cc2c(ccc3ccccc32)oc1=O)c1nc2ccccc2s1 (configuration not stated) | -3.25
O=C(CSc1ncnc2nc[nH]c12)Nc1ccc(Br)cc1Cl | 9.25
Cc1ccc(OCC(=O)Nc2cc(C(=O)O)cc(C(=O)O)c2)cc1C | -17.5
Cc1cccc(NC(=O)CSc2ncnc3nc[nH]c23)c1C | 43.9
N#Cc1c(-c2ccccc2)ccnc1N1CCOCC1 | 0.41
Cc1cccc(NC(=O)CSc2ncnc3nc[nH]c23)c1 | 56.5

The measured values listed here are drawn from PubChem BioAssay AID1619.
